molecular target: Abeta:Zn (25:50 μM) Synthetic Aggregations (Homo sapiens); construct: PB Compound Mediated Dissolution of Aggregated Abeta 1-42; test: Disaggregation of Abeta:Zn synthetic aggregates (ThT fluorescence); details: Abeta:Zn 25:50 μM aggregates
Experimental Readout: EC50

Look over these answered cases.
In [3]: df
Out[3]:
                                  smiles   result
0  CCn1nccc1-n1cnc2c(O)c(Cl)cc(Cl)c2c1=O  > 20 µM
1     CN(C)Cc1cnc2c(Cl)cc(Cl)c(O)c2n1.Cl  > 50 µM
2      Br.Oc1cccc2c(=S)n(Cc3ccccn3)cnc12  > 20 µM

Respectfully, I request EC50 for each entry included below.
1. CCOC(=O)c1cnc2c(O)c(CC)ncc2c1
2. O=c1c2c(Cl)cc(Cl)c(O)c2ncn1CCc1ccccn1
3. O=c1c2cccc(O)c2ncn1-c1ccc(F)cc1

A.
> 20 µM
> 20 µM
> 20 µM

----------
biological target: Aβ 1-42 (Homo sapiens, UniProt P05067); construct: The reaction solutions contained Aβ 1-42 at concentrations; experiment: Fluorometric H2O2 assay (inhibition of Abeta H2O2 production); type: biochemical; conditions: concentration required to inhibit 50% of Abeta H2O2 production; read-out: H2O2 IC50
For each entry below, report its pIC50 value.
Answers are plain numbers, as −log10 of the molar value.

Look over these answered cases.
>>> print(df.to_string())
                                 smiles  experimental_readout  result
0  Cn1nccc1-n1cnc2c(O)c(Cl)cc(Cl)c2c1=O                 pIC50    6.03
1         Oc1ccccc1-c1cc(Cl)c2cccnc2c1O                 pIC50    5.94
2                   c1ccc(-c2ccccn2)nc1                 pIC50    6.64
3  Oc1c(Br)cc(-c2cc(F)cc(F)c2)c2cccnc12                 pIC50    6.11
4            CCCCc1cnc2c(O)c(I)ccn2c1=O                 pIC50    6.18

Respectfully, I request pIC50 for each entry included below.
1. CCCCc1cnc2c(O)cccn2c1=S
2. O=C(Cn1cnc2c(O)cccc2c1=O)Nc1ccccn1
3. CCn1cnc2c(O)c(I)cc(I)c2c1=O
4. O=C(NCc1ccccn1)c1ccc2cccc(O)c2n1

A.
1: 6.39; 2: 6.23; 3: 6.51; 4: 6.37

----------
For each entry below, report its IC50 value.
target: Aβ 1-42 (Homo sapiens, UniProt P05067); construct: The reaction solutions contained Aβ 1-42 at concentrations; experiment: Fluorometric H2O2 assay (inhibition of Abeta H2O2 production); assay type: biochemical; conditions: concentration required to inhibit 50% of Abeta H2O2 production; read-out: H2O2 IC50

>>> print(df.to_string())
                             smiles  experimental_readout    result
0  COc1cccc(-c2cc(Cl)c3cccnc3c2O)c1                  IC50  < 700 nM

Respectfully, I request IC50 for each entry included below.
1. O=S(=O)(O)c1ccc(-c2ccnc3c2ccc2c(-c4ccc(S(=O)(=O)O)cc4)ccnc23)cc1
2. CN(C)Cc1cnc2c(Cl)cc(Cl)c(O)c2n1.Cl
3. NCCNC(=O)c1ccc2cccc(O)c2n1
4. COc1ccc(-c2cc(Cl)c3cccnc3c2O)cc1

A.
1: > 10000 nM; 2: > 10000 nM; 3: > 10000 nM; 4: < 1100 nM

Respectfully, I request IC50 for each entry included below.
1. Cc1ccccc1-c1cc(I)c(O)c2ncccc12
2. Oc1c(Cl)cc(Cl)c2cccnc12
3. CCCn1cnc2c(O)c(I)ccc2c1=O
4. Oc1cccc2ccc(CNCc3ccccn3)nc12

A.
["< 910 nM", "400 nM", "280 nM", "470 nM"]

----------
For each entry below, report its Cytotox (% viable) Neuronal cells at 1 μM value.
tested on: primary cortical neuronal cultured cells; test: Test compound cytotoxicity, MTS assay, primary cortical neuronal cultures; format: cell-based, mouse; conditions: 1 μM test compound
Give bare numbers, in %.

                                   compound  result
0  O=C(NCCc1c[nH]cn1)c1ccc2c(Cl)cc(Cl)c(O)c2n1 [PB 1038]      91

Q. Complete the entry with Cytotox (% viable) Neuronal cells at 1 μM for O=c1c2c(Cl)cc(Cl)c(O)c2ncn1Cc1cccc(Cn2cnc3c(O)c(Cl)cc(Cl)c3c2=O)n1 [PB 1101]
A. 89

----------
system: Abeta in extract of post-mortem human AD brain tissue; test: BAS: human brain amyloid solubilization assay; assay type: biochemical; details: max effect across the concentration range, referenced to baseline PBS
Note that class boundaries on BAS max effect are low value: < 200%; medium value: ≥ 200% and < 300%; high value: ≥ 300%

Q. Tag the class for "Cc1ccc2nc(-c3ccc(N(C)C)cc3)sc2c1"
A. medium value

Q. Tag the class for "O=C(Nc1nccs1)c1ccc2cccc(O)c2n1"
A. medium value

Q. Tag the class for OC1=NN=CC2C=CC=NC12 (stereo not shown)
A. medium value

Q. Tag the class for "Oc1c(-c2ccccc2)cc(-c2ccccc2)c2cccnc12"
A. low value

Q. Tag the class for "CCNCc1ccc2c(Cl)cc(Cl)c(O)c2n1.Cl"
A. medium value

Q. Tag the class for "O=C(CNC(=O)c1cc(O)c2cccc(O)c2n1)NCCc1c[nH]cn1"
A. high value

Q. Tag the class for "Oc1ccccc1-c1cc(Cl)c2cccnc2c1O"
A. medium value

----------
biological target: Abeta:Zn (25:50 μM) Synthetic Aggregations (Homo sapiens, UniProt P05067); construct: PB Compound Mediated Dissolution of Aggregated Abeta 1-42; assay: Disaggregation of Abeta:Zn synthetic aggregates (ThT fluorescence); settings: Abeta:Zn 25:50 μM aggregates
Sequence (P05067 672-713 limits assumed): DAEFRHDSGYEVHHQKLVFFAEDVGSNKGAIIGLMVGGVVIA
For each entry below, report its EC50 value.
Give bare numbers, in µM.

Look over these answered cases.
                                   compound                           target_of_assay  experimental_readout  result
0                   CCCCc1cnc2c(O)cccn2c1=S  Abeta:Zn (25:50 μM) Synthetic Aggregations (Homo sapiens, UniProt P05067)                  EC50    1.55
1                  CCn1cnc2c(O)c(I)ccc2c1=O  Abeta:Zn (25:50 μM) Synthetic Aggregations (Homo sapiens, UniProt P05067)                  EC50    0.91
2  O=c1c2ccc(I)c(O)c2ncn1Cc1cccc(Cn2cnc3c(O)c(I)ccc3c2=O)n1  Abeta:Zn (25:50 μM) Synthetic Aggregations (Homo sapiens, UniProt P05067)                  EC50     3.9
3       CCN(CC)C(=O)Cn1cnc2c(O)c(I)ccc2c1=O  Abeta:Zn (25:50 μM) Synthetic Aggregations (Homo sapiens, UniProt P05067)                  EC50     7.4
4               CC(C)c1cnc2c(O)c(I)ccn2c1=O  Abeta:Zn (25:50 μM) Synthetic Aggregations (Homo sapiens, UniProt P05067)                  EC50     7.1

Respectfully, I request EC50 for each entry included below.
1. CCC(C)Cn1cnc2c(O)cccc2c1=O (stereo not drawn)
2. Oc1c(I)cc(I)c2cccnc12
3. NCc1ccc2cccc(O)c2n1
4. O=C(Nc1nc2ccc(F)cc2s1)c1cnc2c(O)cccn2c1=O

A.
5.27
4.1
16.3
14.7

----------
target: Abeta:Zn (25:50 μM) Synthetic Aggregations (Homo sapiens, UniProt P05067); construct: PB Compound Mediated Dissolution of Aggregated Abeta 1-42; purchased Keck Laboratory, Yale University School of Medicine; assay: Disaggregation of Abeta:Zn synthetic aggregates (ThT fluorescence); format: biochemical; conditions: 5 μM test compound
Experimental Readout: Disaggregation % Aggregate reduction at 5 μM
Field note: include the unit after the figure.

Look over these answered cases.
>>> df
                               compound  result
0               Oc1c(Br)cc(Br)c2cccnc12     50%
1                   NCc1ccc2cccc(O)c2n1   31.6%
2  CCN(CC)Cc1ccc2c(Cl)cc(Cl)c(O)c2n1.Cl   17.9%
3   O=c1c2c(Cl)cc(I)c(O)c2ncn1Cc1ccccn1     26%
4    O=C(Cn1cnc2c(O)cccc2c1=O)Nc1ccccn1     24%

Respectfully, I request Disaggregation % Aggregate reduction at 5 μM for each entry included below.
1. Fc1ccc(NCc2cccc3cccnc23)cc1
2. CC(C)Cn1cnc2c(O)c(I)ccc2c1=O
3. CCn1nccc1-n1cnc2c(O)c(Cl)cc(Cl)c2c1=O

A.
1: 19.9%; 2: 56%; 3: 16.4%

Respectfully, I request Disaggregation % Aggregate reduction at 5 μM for each entry included below.
1. CCCCNC(=O)c1cnc2c(O)c(I)ccn2c1=O
2. Br.CC(Br)CCn1cnc2c(O)c(Cl)cc(Cl)c2c1=O (stereo not drawn)
3. O=c1c2c(Cl)cc(Cl)c(O)c2ncn1CCN1CCCC1
4. CCC(C)Cn1cnc2c(O)cccc2c1=O (stereo not drawn)
5. CCc1cnc2c(O)cccn2c1=S
6. CCc1cnc2c(O)cccn2c1=O
7. O=C(NCc1ccc(F)cc1)c1cnc2c(O)c(I)ccn2c1=O
8. O=c1c2c(Cl)cc(Cl)c(O)c2ncn1Cc1ccccn1

A.
1: 56.8%; 2: 19.2%; 3: 0%; 4: 49%; 5: 62%; 6: 8.4%; 7: 10%; 8: 24%

Respectfully, I request Disaggregation % Aggregate reduction at 5 μM for each entry included below.
1. O=c1c2c(Cl)cc(Cl)c(O)c2ncn1CCc1ccccn1
2. CCn1cnc2c(O)c(I)cc(I)c2c1=O
3. CCN(CC)C(=O)Cn1cnc2c(O)c(I)ccc2c1=O
4. COc1ccc(NCc2cccc3cccnc23)cc1
5. CN(C)Cc1cnc2c(Cl)cc(Cl)c(O)c2n1.Cl

A.
23.4%
64%
39.3%
21.5%
35%
